The entries below come with measured TGI values attached.
# System: OVCAR-5 ovarian
# Protocol Text: NCI tumour cell line growth inhibition, 48 h

Example results:
CN(CCc1ccccn1)/[N+]([O-])=N/O (tested in a mixture with another compound): > 100 µM
COc1cc(Cn2c3ccccc3c3cc(C)cc(OC)c32)cc2c1[nH]c1ccccc12: > 25 µM
Clc1ccc2c(c1)CC1C[N+]3=C(CCCCC3)C1=C2 (stereo not given): > 100 µM
COc1ccc(C(=O)Nc2ccn(CCOC(=O)c3ccc(OC)cc3)c(=O)n2)cc1: > 100 µM
C=C(C)C1CC=C(C)C(O)([C@@]2(O)C[C@H](C(=C)C)CC=C2C)C1 (stereo not given in full): 63.5 µM

Consider the record given below.
Query :: Give the reported TGI for this compound. O=C1C(c2ccccc2)=[N+]([O-])c2cc([N+](=O)[O-])ccc21
Result :: > 100 µM

----------
The entries below come with measured GI50 values attached.
# Tested on: SF-268 CNS
# Protocol Text: NCI tumour cell line growth inhibition, 48 h

Example results:
COC1/C=C/OC2(C)Oc3c(C)c(O)c4c(O)c(c(/C=N/N(c5ccccc5)c5ccccc5)c(O)c4c3C2=O)NC(=O)C(C)=C/C=C/C(C)C(O)C(C)C(O)C(C)C(OC(C)=O)C1C (stereo not given): 1.93 µM
CN(C)c1ccc(/C=N/n2c(CCCCc3n[nH]c(=S)n3/N=C/c3ccc(N(C)C)cc3)n[nH]c2=S)cc1: > 100 µM

Query :: Give the reported GI50 for this compound. CN(C)c1ccc2cc3c(cc2c1)Oc1ccccc1N3.[Cl][Zn][Cl]
Result :: 13.6 µM

Query :: Give the reported GI50 for this compound. CCCCNP1(NCCCC)=NP(NCCCC)(NCCCC)=NP(NCCCC)(NCCCC)=NP(NCCCC)(NCCCC)=N1
Result :: 1.53 µM

Query :: Give the reported GI50 for this compound. COc1ccc(Cl)cc1Nc1nc(C(F)(F)F)ccc1C(=O)N/N=C/c1ccccc1Cl
Result :: 2.22 µM

Query :: Give the reported GI50 for this compound. Cl.[O-]c1cccc2cccnc12.[O-]c1cccc2cccnc12.[O-]c1cccc2cccnc12.[O-]c1cccc2cccnc12.[Ti+4]
Result :: 0.594 µM

----------
# Tested on: NCI-H226 lung
# Protocol Text: NCI tumour cell line growth inhibition, 48 h
The entries below come with measured TGI values attached.

Example results:
C[n+]1ccc2/c(=C\C#N)c3ccccc3n21: > 100 µM
COc1ccc(-c2nsc3c2NC(=O)CC3c2cccc(F)c2)cc1 (stereo unspecified): > 100 µM
O=C(O)C1Cc2[nH]c3ccccc3c2C2CCCC12 (stereo unspecified): > 100 µM
Cc1nnc(N)nc1C/C=C/C(C)Sc1ccc(Cl)cc1 (stereo unspecified): 7.69 µM
CC(=O)OC(C)(C)C[N+](=O)[O-]: > 100 µM

Query :: Give the reported TGI for this compound. O=C(O)c1ccc(Nc2nc3ccc(C(F)(F)F)cc3nc2C(=O)O)cc1
Result :: > 100 µM

Query :: Give the reported TGI for this compound. CC(C)(C)C1CCC2c3c([nH]c4ccccc34)C3C(=O)N(c4cc(Cl)ccc4Cl)C(=O)C3C2C1 (stereo unspecified)
Result :: > 100 µM

Query :: Give the reported TGI for this compound. Cn1cc(-c2csc(-c3cn(CCCN4CCCCC4)c4ccc(Br)cc34)n2)c2cccnc21
Result :: 4.84 µM

Query :: Give the reported TGI for this compound. O=c1oc2c(O)c(O)cc3c(=O)oc4c(O)c(O)cc1c4c23
Result :: 57.4 µM

Query :: Give the reported TGI for this compound. Cc1ccc(C(CCO)CCO)nc1
Result :: > 100 µM

Query :: Give the reported TGI for this compound. CC(=O)c1ccc(Nc2nc3ccccc3c3occc23)cc1
Result :: 98 µM

Query :: Give the reported TGI for this compound. O=C1CS(=O)c2ccccc2N1 (stereo unspecified)
Result :: > 100 µM

Query :: Give the reported TGI for this compound. CC(C)OP(=O)(OC(C)C)/C(=N/Nc1ccc([N+](=O)[O-])cc1)NNC(=O)c1ccccc1
Result :: > 100 µM

----------
# Tested on: CCRF-CEM leukemia
# Protocol Text: NCI tumour cell line growth inhibition, 48 h
Measurement Kind: TGI

Example results:
CC(=O)c1sc2c(c1OC(=O)c1ccccc1)c(=O)n(-c1ccccc1)c(=S)n2-c1ccccc1: 5.83 µM
CC[C@@]1(O)C(=O)OCc2c1cc1n(c2=O)Cc2cc3cccc(N)c3nc2-1: > 100 µM

Query :: Give the reported TGI for this compound. Cc1c(C(=O)/C=C/c2ccc(Cl)cc2)nnn1-c1ccnc2c(C(F)(F)F)cccc12
Result :: > 100 µM

Query :: Give the reported TGI for this compound. CN(CCc1ccccn1)/[N+]([O-])=N/O (tested in a mixture with another compound)
Result :: > 100 µM

Query :: Give the reported TGI for this compound. O=C1CS(=O)c2ccccc2N1 (stereo unspecified)
Result :: > 100 µM

Query :: Give the reported TGI for this compound. COc1cccc2c1C(=O)c1c(O)c3c(c(O)c1C2=O)CC(O)(C(C)=O)CC3OC1OC(COC(C)=O)C(OC(C)=O)C(OC(C)=O)C1OC(C)=O (stereo unspecified)
Result :: 0.131 µM

----------
The entries below come with measured log10 TGI values attached.
# System: IGROV1 ovarian
# Protocol Text: NCI tumour cell line growth inhibition, 48 h
log10 TGI, µM

Example results:
CCCCCCCCCCCCCP(=O)(OC)OC: 1.55
O=C1c2c(c3c4ccccc4n(CCCCCCN4CCOCC4)c3c3[nH]c4ccccc4c23)C(=O)N1O: 1.69

Query :: Give the reported log10 TGI for this molecule. C=C(C)C1CC=C(C)C(O)([C@@]2(O)C[C@H](C(=C)C)CC=C2C)C1 (stereo not given in full)
Result :: 1.73

Query :: Give the reported log10 TGI for this molecule. O=C(N/N=C/c1cc(Cl)cc(Cl)c1[O-])c1ccccc1O.O=C(N/N=C/c1cc(Cl)cc(Cl)c1[O-])c1ccccc1O.[Cu+2]
Result :: 0.06

Query :: Give the reported log10 TGI for this molecule. O=C(/C=C/c1ccc(O)c(O)c1)c1ccc(O)cc1O
Result :: 1.55

----------
# Test system: EKVX NSCLC
# Protocol Text: NCI tumour cell line growth inhibition, 48 h; in the data active means GI50 below about 0.43 µM; inactive means the rest
Use one of these outcomes when replying: 1 (yes) = active, 0 (no) = inactive

CC1OC(OC2C(O)C(OCCc3ccc(O)c(O)c3)OC(CO)C2OC(=O)/C=C/c2ccc(O)c(O)c2)C(O)C(O)C1O (centres undefined): 0 (no)
CCOP(=O)(OCC)C(NC(c1ccccc1)c1ccccc1)c1ccsc1 (centres undefined): 0 (no)
Cc1ccc2c(c1)C(=O)/C(=C/c1cccc(OCC(=O)c3ccc(Cl)cc3)c1)CS2: 0 (no)

Query :: Recorded test call requested for O=c1oc2ccc(I)cc2c(=O)n1-c1ccc(I)cc1F
Result :: 0 (no)

Query :: Recorded test call requested for O=c1[nH][nH]c(=O)c2c(O)c(-c3ccccc3)ncc12
Result :: 0 (no)

Query :: Recorded test call requested for O=C(CS(=O)c1nc2ccccc2nc1-c1ccccc1)Nc1ccc(Cl)cc1 (centres undefined)
Result :: 0 (no)

Query :: Recorded test call requested for CCCn1cc(/C=N\N=C2\C(=O)Nc3ccc(C)cc32)c2ccccc21
Result :: 0 (no)

Query :: Recorded test call requested for O=C(Nc1cccc(-n2ccc3c(NC(=O)c4ccccc4)nccc32)c1)c1ccc(Cl)c(Cl)c1
Result :: 0 (no)

----------
# System: OVCAR-8 ovarian
# Protocol Text: NCI tumour cell line growth inhibition, 48 h; in the data active = GI50 below about 0.43 µM; inactive = the rest
Use one of these outcomes when replying: active, inactive

Cc1ccc2c(c1)C(=O)/C(=C/c1cccc(OCC(=O)c3ccc(Cl)cc3)c1)CS2: inactive
CN(C)C[C@@H]1CCn2cc(c3ccccc32)C2=C(C(=O)NC2=O)c2cn(c3ccccc23)CCO1: inactive
CCCCNP1(NCCCC)=NP(NCCCC)(NCCCC)=NP(NCCCC)(NCCCC)=NP(NCCCC)(NCCCC)=N1: inactive
Cl.[O-]c1cccc2cccnc12.[O-]c1cccc2cccnc12.[O-]c1cccc2cccnc12.[O-]c1cccc2cccnc12.[Ti+4]: inactive
COC1/C=C/OC2(C)Oc3c(C)c(O)c4c(O)c(c(/C=N/N(c5ccccc5)c5ccccc5)c(O)c4c3C2=O)NC(=O)C(C)=C/C=C/C(C)C(O)C(C)C(O)C(C)C(OC(C)=O)C1C (stereo unspecified): inactive
O=C1NC(c2cccc3ccccc23)Nc2ccccc21 (stereo unspecified): active

Query :: Recorded test call requested for CN1CCN(C(=O)[C@@]2(C)CC[C@]3(C)CC[C@]4(C)C(=CC[C@@H]5[C@@]6(C)CC[C@H](OC(=O)c7cccnc7)C(C)(C)[C@@H]6CC[C@]54C)[C@@H]3C2)CC1
Result :: inactive

Query :: Recorded test call requested for Cn1c2ccccc2c2c(=O)n(CCCC(=O)NCCc3cnc[nH]3)c3c(-c4ccccc4)nnn3c21
Result :: inactive

Query :: Recorded test call requested for Fc1ccc(-c2c(-c3ccncc3)[nH]c3cccnc23)cc1
Result :: inactive

Query :: Recorded test call requested for COc1ccc2[nH]cc(C3(c4c[nH]c5ccc(OC)cc45)C(=O)Nc4ccc(Cl)cc43)c2c1
Result :: inactive

Query :: Recorded test call requested for CN(C)c1ccc(/C=N/n2c(CCCCc3n[nH]c(=S)n3/N=C/c3ccc(N(C)C)cc3)n[nH]c2=S)cc1
Result :: inactive
